- testDetails: Half life in mouse liver microsomes
- Type: ADME
recordedEndpoint: half-life (min)
Give the value, in units of min, as a plain number.

[
  {
    "molecule": "CCc1nc2ccc(Cl)cn2c1C(=O)NCc1ccc(N2CCC(c3ccc(F)cc3)CC2)cc1",
    "testResult": 20.3
  },
  {
    "molecule": "CCc1nc2cc(Cl)ccn2c1C(=O)NCc1ccc(N2CC3CCCCC3C2)cc1 (stereo not given)",
    "testResult": 6.3
  }
]

Sure, the documented half-life for CCc1nc2cc(Cl)ccn2c1C(=O)NCc1ccc(N2CCC(c3ccc(F)cc3)CC2)cc1 is 18.4

Sure, the documented half-life for CCc1nc2ccc(Cl)cn2c1C(=O)NCc1ccc(-c2ccccc2Cl)cc1 is 13.1

----------
- testDetails: Half life in human liver microsomes
- Assay type: ADME
Rule: half-life under 30 min gives NOT MET, otherwise MET.

Please review the entries below; each comes with its answer.
[
  {
    "structureAsSmiles": "CCc1nc2ccc(Cl)cn2c1C(=O)NCc1ccc(N2CCN(c3ccc(F)cc3)CC2)cc1",
    "classAssignment": "MET"
  },
  {
    "structureAsSmiles": "CCc1nc2ccc(Cl)cn2c1C(=O)NCc1ccc(-c2ccccc2)cc1",
    "classAssignment": "NOT MET"
  },
  {
    "structureAsSmiles": "CCc1nc2cc(Cl)ccn2c1C(=O)NCc1ccc(N2CCN(C)CC2)cc1",
    "classAssignment": "MET"
  },
  {
    "structureAsSmiles": "CCc1nc2cc(Cl)ccn2c1C(=O)NCc1ccc(-c2ccc(Cl)cc2)cc1",
    "classAssignment": "MET"
  }
]

--- query ---
[ask] Quick check, half-life >= 30 min? CCc1nc2cc(Cl)ccn2c1C(=O)NCc1ccc(N2CCC(c3ccc(F)cc3)CC2)cc1
[reply] NOT MET

----------
- testedTarget: Cytochrome P450 3A4 (Homo sapiens)
- Sequence (P08684 whole entry): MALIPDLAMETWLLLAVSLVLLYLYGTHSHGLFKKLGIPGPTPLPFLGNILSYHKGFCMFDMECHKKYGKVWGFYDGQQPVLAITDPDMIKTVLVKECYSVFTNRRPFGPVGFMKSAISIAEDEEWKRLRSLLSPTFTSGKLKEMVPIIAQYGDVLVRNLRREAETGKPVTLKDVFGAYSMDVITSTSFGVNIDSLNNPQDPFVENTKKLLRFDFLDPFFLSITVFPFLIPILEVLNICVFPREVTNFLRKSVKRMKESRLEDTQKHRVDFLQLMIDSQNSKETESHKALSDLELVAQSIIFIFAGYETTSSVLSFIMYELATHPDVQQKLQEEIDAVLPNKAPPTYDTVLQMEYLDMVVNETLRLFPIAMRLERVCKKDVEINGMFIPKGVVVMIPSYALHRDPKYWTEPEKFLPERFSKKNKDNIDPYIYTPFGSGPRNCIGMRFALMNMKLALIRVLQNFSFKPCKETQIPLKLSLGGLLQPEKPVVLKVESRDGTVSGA
- testDetails: Inhibition of recombinant CYP3A4 (unknown origin) by LC/MS/MS analysis
pIC50: −log10 of the molar value.
recordedEndpoint: pIC50

[
  {
    "molecule": "CCc1nc2cc(Cl)ccn2c1C(=O)NCc1ccc(N2CCN(c3ccc(F)cc3)CC2)cc1",
    "pIC50": "< 4.40"
  },
  {
    "molecule": "CCc1nc2ccc(Cl)cn2c1C(=O)NCc1ccc(N2CCN(c3ccc(OC(F)(F)F)cc3)CC2)cc1",
    "pIC50": 4.94
  },
  {
    "molecule": "CCc1nc2cc(Cl)ccn2c1C(=O)NCc1ccc(N2CCC(c3ccc(Cl)cc3)CC2)cc1",
    "pIC50": "< 4.40"
  },
  {
    "molecule": "CCc1nc2cc(Cl)ccn2c1C(=O)NCc1ccc(N2CCC(c3ccc(OC(F)(F)F)cc3)CC2)cc1",
    "pIC50": "< 4.00"
  },
  {
    "molecule": "CCc1nc2ccc(Cl)cn2c1C(=O)NCc1ccc(N2CCC(c3ccc(Cl)cc3)CC2)cc1",
    "pIC50": "< 4.40"
  },
  {
    "molecule": "CCc1nc2cc(Cl)ccn2c1C(=O)NCc1ccc(N2CCN(c3ccc(OC(F)(F)F)cc3)CC2)cc1",
    "pIC50": "< 4.40"
  },
  {
    "molecule": "CCc1nc2ccc(Cl)cn2c1C(=O)NCc1ccc(N2CCN(c3ccc(F)cc3)CC2)cc1",
    "pIC50": 6.31
  },
  {
    "molecule": "CCc1nc2ccc(Cl)cn2c1C(=O)NCc1ccc(N2CCC(c3ccc(F)cc3)CC2)cc1",
    "pIC50": "< 4.40"
  }
]

Sure, the documented pIC50 for CCc1nc2cc(Cl)ccn2c1C(=O)NCc1ccc(N2CCC(c3ccc(F)cc3)CC2)cc1 is 5.68

Sure, the documented pIC50 for CCc1nc2ccc(Cl)cn2c1C(=O)NCc1ccc(N2CCC(c3ccc(OC(F)(F)F)cc3)CC2)cc1 [TELACEBEC] is < 4.00

----------
- testDetails: Cmax in mouse at 10 mg/kg, po
- Type: ADME, organism-based
- Design: dose 10 mg/kg, route oral
- conditionContext: in vivo
recordedEndpoint: Cmax
Remember to follow the number with its unit.

[
  {
    "molecule": "CCc1nc2ccc(Cl)cn2c1C(=O)NCc1ccc(N2CCC(c3ccc(OC(F)(F)F)cc3)CC2)cc1 [TELACEBEC]",
    "Cmax": "1490 ng/mL"
  },
  {
    "molecule": "CCc1nc2cc(Cl)ccn2c1C(=O)NCc1ccc(N2CCC(c3ccc(OC(F)(F)F)cc3)CC2)cc1",
    "Cmax": "1990 ng/mL"
  }
]

Now let's try a different one.
Sure, the documented Cmax for CCc1nc2cc(Cl)ccn2c1C(=O)NCc1ccc(N2CCN(c3ccc(F)cc3)CC2)cc1 is 4450 ng/mL

----------
Reported half-life values for the following compounds.
- testDetails: Half life in mouse liver microsomes
- Type: ADME
Give the value, in units of min, as a plain number.

[
  {
    "structureAsSmiles": "CCc1nc2cc(Cl)ccn2c1C(=O)NCc1ccc(N2CCC(C(F)(F)F)CC2)cc1",
    "testResult": 5.1
  },
  {
    "structureAsSmiles": "CCc1nc2cc(Cl)ccn2c1C(=O)NCc1ccc(-c2ccc(C)cc2)cc1",
    "testResult": 23.1
  },
  {
    "structureAsSmiles": "CCc1nc2cc(Cl)ccn2c1C(=O)NCc1ccc(-c2ccc[nH]2)cc1",
    "testResult": 10.8
  }
]

Now let's try a different one.
Sure, the documented half-life for CCc1nc2cc(Cl)ccn2c1C(=O)NCc1ccc(N2CCCCC2)cc1 is 2.3

----------
Reported half-life values for the following molecules.
- testDetails: Half life in human liver microsomes
- Assay type: ADME

Sure, the documented half-life for CCc1nc2ccc(Cl)cn2c1C(=O)NCc1ccc(N2CCN(c3ccc(OC(F)(F)F)cc3)CC2)cc1 is > 2 h

Sure, the documented half-life for CCc1nc2cc(Cl)ccn2c1C(=O)NCc1ccc(N2CCN(C(C)C)CC2)cc1 is > 2 h

Sure, the documented half-life for CCc1nc2cc(Cl)ccn2c1C(=O)NCc1ccc(N2CCC(Cl)CC2)cc1 is 0.183 h

Sure, the documented half-life for CCc1nc2cc(Cl)ccn2c1C(=O)NCc1ccc(N2CCC(c3ccc(Cl)cc3)CC2)cc1 is 1.12 h

Sure, the documented half-life for CCc1nc2ccc(Cl)cn2c1C(=O)NCc1ccc(N2CCC(c3ccc(F)cc3)CC2)cc1 is 1.04 h

Sure, the documented half-life for CCc1nc2ccccn2c1C(=O)NCc1ccc(-c2ccccc2)cc1 is 0.452 h

Sure, the documented half-life for CCc1nc2cc(Cl)ccn2c1C(=O)NCc1ccc(N2CCCCC2)cc1 is 0.22 h

Sure, the documented half-life for CCc1nc2cc(Cl)ccn2c1C(=O)NCc1ccc(N2CCN(c3ccc(OC(F)(F)F)cc3)CC2)cc1 is > 2 h

Sure, the documented half-life for Cc1nc2ccc(Cl)cn2c1C(=O)NCc1ccc(-c2ccccc2)cc1 is > 2 h

Sure, the documented half-life for CCc1nc2ccc(Cl)cn2c1C(=O)NCc1ccc(-c2ccc(Cl)cc2)cc1 is 1.38 h

----------
- testedTarget: Cytochrome P450 2C19 (Homo sapiens, UniProt P33261)
- Sequence (P33261 whole entry): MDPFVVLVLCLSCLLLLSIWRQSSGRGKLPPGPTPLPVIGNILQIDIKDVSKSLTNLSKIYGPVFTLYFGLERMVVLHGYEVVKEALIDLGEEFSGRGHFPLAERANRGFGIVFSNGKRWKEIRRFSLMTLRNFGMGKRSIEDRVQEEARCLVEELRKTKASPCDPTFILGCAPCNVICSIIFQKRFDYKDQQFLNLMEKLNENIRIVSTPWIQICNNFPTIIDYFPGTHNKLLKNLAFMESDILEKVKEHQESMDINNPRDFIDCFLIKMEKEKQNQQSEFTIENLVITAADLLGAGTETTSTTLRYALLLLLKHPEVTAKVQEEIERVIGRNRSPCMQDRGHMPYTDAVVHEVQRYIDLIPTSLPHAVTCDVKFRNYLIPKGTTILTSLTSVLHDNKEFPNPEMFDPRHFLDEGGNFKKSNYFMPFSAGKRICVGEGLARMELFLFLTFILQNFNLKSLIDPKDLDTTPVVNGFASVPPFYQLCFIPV
- testDetails: Inhibition of recombinant CYP2C19 (unknown origin) by LC/MS/MS analysis
pIC50: −log10 of the molar value.
Reported pIC50 values for the following compounds.

Answered cases to consult:
[
  {
    "compound": "CCc1nc2ccc(Cl)cn2c1C(=O)NCc1ccc(N2CCC(c3ccc(F)cc3)CC2)cc1",
    "pIC50": "< 4.40"
  },
  {
    "compound": "CCc1nc2cc(Cl)ccn2c1C(=O)NCc1ccc(N2CCN(c3ccc(F)cc3)CC2)cc1",
    "pIC50": "< 4.40"
  },
  {
    "compound": "CCc1nc2ccc(Cl)cn2c1C(=O)NCc1ccc(N2CCN(c3ccc(OC(F)(F)F)cc3)CC2)cc1",
    "pIC50": "< 4.40"
  },
  {
    "compound": "CCc1nc2cc(Cl)ccn2c1C(=O)NCc1ccc(N2CCN(c3ccc(OC(F)(F)F)cc3)CC2)cc1",
    "pIC50": "< 4.40"
  }
]

Now let's try a different one.
Cytochrome P450 2C19 (Homo sapiens, UniProt P33261) data for CCc1nc2ccc(Cl)cn2c1C(=O)NCc1ccc(N2CCC(c3ccc(OC(F)(F)F)cc3)CC2)cc1 [TELACEBEC] ; its pIC50: < 4.00

----------
Reported IC50 values for the following compounds.
- testedTarget: Cytochrome P450 2C9 (Homo sapiens, UniProt P11712)
- Sequence (P11712 whole entry): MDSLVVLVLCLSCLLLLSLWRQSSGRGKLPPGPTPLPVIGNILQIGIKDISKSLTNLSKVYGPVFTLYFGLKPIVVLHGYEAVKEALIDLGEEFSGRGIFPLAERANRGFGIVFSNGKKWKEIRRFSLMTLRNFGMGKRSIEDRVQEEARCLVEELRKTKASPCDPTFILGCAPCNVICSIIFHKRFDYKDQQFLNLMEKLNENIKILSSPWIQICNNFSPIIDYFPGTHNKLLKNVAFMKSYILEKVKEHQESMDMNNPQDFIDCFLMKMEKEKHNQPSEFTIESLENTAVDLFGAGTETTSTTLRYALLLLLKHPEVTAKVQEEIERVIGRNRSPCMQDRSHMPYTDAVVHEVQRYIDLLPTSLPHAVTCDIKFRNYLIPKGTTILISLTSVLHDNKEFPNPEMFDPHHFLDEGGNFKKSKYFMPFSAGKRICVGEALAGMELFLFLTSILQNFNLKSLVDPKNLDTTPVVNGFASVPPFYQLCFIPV
- testDetails: Inhibition of recombinant CYP2C9 (unknown origin) by LC/MS/MS analysis

Sure, the documented IC50 for CCc1nc2ccc(Cl)cn2c1C(=O)NCc1ccc(N2CCC(c3ccc(F)cc3)CC2)cc1 is > 40 µM

Sure, the documented IC50 for CCc1nc2ccc(Cl)cn2c1C(=O)NCc1ccc(N2CCC(c3ccc(OC(F)(F)F)cc3)CC2)cc1 is > 100 µM

Sure, the documented IC50 for CCc1nc2cc(Cl)ccn2c1C(=O)NCc1ccc(N2CCN(c3ccc(F)cc3)CC2)cc1 is > 40 µM
